# Tested on: A2780
# Assay summary: Cellular proliferation assay (Alamar blue), A2780
# Assay type: cell-based
# Condition set: Homo sapiens, 10% FCS, 72 hours with compound, Alamar blue 24 h, read-out: A2780 (cellular proliferation assay, Table 4) (converted)
# Procedure: […] functional properties of these compounds were tested in cellular proliferation assays on a panel of different cell lines in the presence of 10% FCS serum (37° C. and 5% (v/v) CO2). In a first step these cells were seeded and incubated for 24 hours in the absence of compound. In the second step the cells were incubated for 72 hours with the compounds to be tested for 72 hours. The viable cell number was finally assessed in a standard Alamar blue cell viability assay. […]

- Given smiles: "O=C1NCc2cccc(c2)-c2ccnc(n2)Nc2ccc(cc2)CN2C[C@H](O)C[C@@H]12"
  Study system: "A2780"
  IC50: "> 10 µM"
- Given smiles: "C[C@@H]1NCc2cc(ccc2N2CCOCC2)Nc2nccc(n2)-c2cccc(c2)CNC1=O"
  Study system: "A2780"
  IC50: "> 10 µM"
- Given smiles: "O=C1NCc2cccc(c2)-c2ccnc(n2)Nc2cc(cc(C(=O)N3CCOCC3)c2)CN2CCC[C@@H]12"
  Study system: "A2780"
  IC50: "> 10 µM"
- Given smiles: "C[C@@H]1NCc2ccc(cc2)Nc2nccc(n2)-c2cccc(c2)CNC1=O"
  Study system: "A2780"
  IC50: "> 10 µM"
- Given smiles: "O=C1NCCNCc2ccc(cc2)-c2ccnc(n2)Nc2ccc(N3CCOCC3)c(c2)CN[C@H]1CO"
  Study system: "A2780"
  IC50: "> 10 µM"
- Given smiles: "CN(C)CCNCc1cc2cc(c1)Nc1nccc(n1)-c1cccc(c1)CNC(=O)[C@@H]1CCCN1C2"
  Study system: "A2780"
  IC50: "5.01 µM"
- Given smiles: "COc1ccc2cc1CN1CCC(CC1)C(=O)N(C)CCN(C)c1ccc(cn1)-c1ccnc(n1)N2"
  Study system: "A2780"
  IC50: "> 10 µM"
- Given smiles: "COc1ccc2cc1CN(C)CCCNC(=O)[C@@H]1CCCN1Cc1cc(cc(NC(C)C)c1)Nc1nccc-2n1"
  Study system: "A2780"
  IC50: "> 10 µM"
- Given smiles: "O=C1NCc2cccc(c2)-c2ccnc(n2)Nc2ccc(C(=O)N3CCOCC3)c(c2)CN2CCC[C@@H]12"
  Study system: "A2780"
  IC50: "4.17 µM"
- Given smiles: "CN(C)C(=O)c1cc2cc(c1)Nc1nccc(n1)-c1cccc(c1)CNC(=O)[C@@H]1CCCN1C2"
  Study system: "A2780"
  IC50: "3.39 µM"
- Given smiles: "COc1cc2cc(c1)Nc1nccc(n1)-c1ccc(OC)c(c1)CN(C)CCCNC(=O)C1CCN(CC1)C2"
  Study system: "A2780"
  IC50: "> 10 µM"
- Given smiles: "O=C1NCCCNCc2ccc(cc2)-c2ccnc(n2)Nc2ccc(N3CCOCC3)c(c2)CN2C[C@H](O)C[C@@H]12"
  Study system: "A2780"
  IC50: "> 10 µM"
- Given smiles: "O=C1CN2CCN(CC2)Cc2ccc(Cl)c(c2)Nc2nccc(n2)-c2cccc(c2)CN1"
  Study system: "A2780"
  IC50: "> 10 µM"
- Given smiles: "COc1ccc2cc1CN(C)CCNC(=O)[C@H](CO)NCc1cc(Br)cc(c1)Nc1nccc-2n1"
  Study system: "A2780"
  IC50: "> 10 µM"
- Given smiles: "COc1ccc2cc1CN1CCN(CC1)CC(=O)N(C)CCCN(C)c1ccc(cn1)-c1ccnc(n1)N2"
  Study system: "A2780"
  IC50: "> 10 µM"

###

# Tested on: A2780
# Assay summary: Cellular proliferation assay (Alamar blue), A2780
# Type: cell-based
# Condition set: Homo sapiens, 10% FCS, 72 hours with compound, Alamar blue 24 h, read-out: A2780 (cellular proliferation assay, Table 4) (converted)

- Given smiles: "COc1ccc2cc1CN(C)CCCNC(=O)[C@H](CO)NCc1cc(Br)cc(c1)Nc1nccc-2n1"
  IC50: "> 10 µM"
- Given smiles: "CN1CCN(C(=O)c2ccc3cc2CN2CCC[C@H]2C(=O)NCc2cccc(c2)-c2ccnc(n2)N3)CC1"
  IC50: "4.47 µM"
- Given smiles: "COc1cc2cc(c1)Nc1nccc(n1)-c1ccc(OC)c(c1)CN(C)CCNC(=O)[C@H](CO)NC2"
  IC50: "> 10 µM"

###

# Study system: PLK4 (h) (Homo sapiens, UniProt O00444)
# Sequence (O00444 whole entry): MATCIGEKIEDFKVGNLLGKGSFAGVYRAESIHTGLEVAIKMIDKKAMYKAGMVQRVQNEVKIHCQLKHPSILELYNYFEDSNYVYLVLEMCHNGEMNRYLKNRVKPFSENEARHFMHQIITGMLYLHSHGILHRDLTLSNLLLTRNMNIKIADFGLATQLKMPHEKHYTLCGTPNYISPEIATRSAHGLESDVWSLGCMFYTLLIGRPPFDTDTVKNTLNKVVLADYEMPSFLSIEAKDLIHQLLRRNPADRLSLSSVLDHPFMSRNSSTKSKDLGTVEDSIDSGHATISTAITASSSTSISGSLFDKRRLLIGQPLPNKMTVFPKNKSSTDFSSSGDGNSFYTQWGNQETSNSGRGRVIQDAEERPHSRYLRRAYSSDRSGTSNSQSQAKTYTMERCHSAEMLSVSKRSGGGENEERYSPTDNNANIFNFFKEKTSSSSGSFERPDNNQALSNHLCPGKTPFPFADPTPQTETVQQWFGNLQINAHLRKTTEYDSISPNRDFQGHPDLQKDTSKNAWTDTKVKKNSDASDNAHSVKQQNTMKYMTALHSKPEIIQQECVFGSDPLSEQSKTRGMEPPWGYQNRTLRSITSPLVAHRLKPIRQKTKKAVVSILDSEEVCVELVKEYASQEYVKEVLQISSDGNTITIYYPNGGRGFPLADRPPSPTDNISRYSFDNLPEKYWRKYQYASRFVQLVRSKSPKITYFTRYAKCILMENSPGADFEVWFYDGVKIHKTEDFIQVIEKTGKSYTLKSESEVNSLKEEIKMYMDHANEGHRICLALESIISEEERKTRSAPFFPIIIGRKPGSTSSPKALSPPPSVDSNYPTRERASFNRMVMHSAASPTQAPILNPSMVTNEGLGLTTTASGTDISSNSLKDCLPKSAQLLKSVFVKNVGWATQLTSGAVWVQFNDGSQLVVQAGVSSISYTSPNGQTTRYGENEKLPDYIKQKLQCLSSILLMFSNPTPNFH
# Assay summary: PLK-4 human kinase inhibition, scintillation proximity assay (SPA)
# Format: biochemical
# Condition set: read-out: PLK4 pIC50 (converted)
The compounds listed here are annotated with their IC50.

- Given smiles: "C[C@H]1NCc2cc(ccc2N2CCOCC2)Nc2nccc(n2)-c2ccc(cc2)OCCCNC1=O"
  Sign: "="
  IC50 [nM]: 209
- Given smiles: "COc1cc2cc(c1)Nc1nccc(n1)-c1ccc(OC)c(c1)CN(C)CCCNC(=O)CN1CCN(CC1)C2"
  Sign: "="
  IC50 [nM]: 2690
- Given smiles: "COc1ccc2cc1CNCCNC(=O)[C@@H]1C[C@@H](O)CN1Cc1cc(ccc1N1CCOCC1)Nc1nccc-2n1"
  Sign: ">"
  IC50 [nM]: 10000

###

Each item that follows carries a reported IC50.
# Study system: PLK4 (h) (Homo sapiens, UniProt O00444)
# Assay summary: PLK-4 human kinase inhibition, scintillation proximity assay (SPA)
# Format: biochemical
# Condition set: read-out: PLK4 pIC50 (converted)

- Given smiles: "O=C1NCc2cccc(c2)-c2ccnc(n2)Nc2ccc(cc2)CN2CCC[C@@H]12"
  Study system: "PLK4 (h) (Homo sapiens, UniProt O00444)"
  Sign: ">"
  IC50 (µM): 10
- Given smiles: "COc1cc2cc(c1)Nc1nccc(n1)-c1ccc(cc1)CN(C)CCNC(=O)[C@H](CO)NC2"
  Study system: "PLK4 (h) (Homo sapiens, UniProt O00444)"
  Sign: "="
  IC50 (µM): 0.741
- Given smiles: "CC(C)Nc1cc2cc(c1)Nc1nccc(n1)-c1ccc(cc1)CN(C)CCNC(=O)CN1CCN(CC1)C2"
  Study system: "PLK4 (h) (Homo sapiens, UniProt O00444)"
  Sign: "="
  IC50 (µM): 1.02
- Given smiles: "O=C1NCCCNCc2ccc(cc2)-c2ccnc(n2)Nc2ccc(N3CCOCC3)c(c2)CN2CCC[C@@H]12"
  Study system: "PLK4 (h) (Homo sapiens, UniProt O00444)"
  Sign: "="
  IC50 (µM): 5.37
- Given smiles: "COc1ccc2cc1CN(C)CCCNC(=O)[C@@H]1CCCN1Cc1cccc(c1)Nc1nccc-2n1"
  Study system: "PLK4 (h) (Homo sapiens, UniProt O00444)"
  Sign: ">"
  IC50 (µM): 10
- Given smiles: "CN1CCNC(=O)[C@H](CO)NCc2cccc(c2)Nc2nccc(n2)-c2ccc(cc2)C1"
  Study system: "PLK4 (h) (Homo sapiens, UniProt O00444)"
  Sign: "="
  IC50 (µM): 1.2

###

# Study system: CDK1/CyclinB (h) (Homo sapiens)
# Sequence (P06493 whole entry): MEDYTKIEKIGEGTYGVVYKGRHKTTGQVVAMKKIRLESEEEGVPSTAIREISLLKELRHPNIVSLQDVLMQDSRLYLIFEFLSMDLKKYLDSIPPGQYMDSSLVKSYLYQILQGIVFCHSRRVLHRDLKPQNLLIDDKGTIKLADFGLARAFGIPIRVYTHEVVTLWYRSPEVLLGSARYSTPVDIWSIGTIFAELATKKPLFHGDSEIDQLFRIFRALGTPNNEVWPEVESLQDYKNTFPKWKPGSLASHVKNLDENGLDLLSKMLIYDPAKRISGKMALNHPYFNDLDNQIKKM
# Sequence (P14635 whole entry partner): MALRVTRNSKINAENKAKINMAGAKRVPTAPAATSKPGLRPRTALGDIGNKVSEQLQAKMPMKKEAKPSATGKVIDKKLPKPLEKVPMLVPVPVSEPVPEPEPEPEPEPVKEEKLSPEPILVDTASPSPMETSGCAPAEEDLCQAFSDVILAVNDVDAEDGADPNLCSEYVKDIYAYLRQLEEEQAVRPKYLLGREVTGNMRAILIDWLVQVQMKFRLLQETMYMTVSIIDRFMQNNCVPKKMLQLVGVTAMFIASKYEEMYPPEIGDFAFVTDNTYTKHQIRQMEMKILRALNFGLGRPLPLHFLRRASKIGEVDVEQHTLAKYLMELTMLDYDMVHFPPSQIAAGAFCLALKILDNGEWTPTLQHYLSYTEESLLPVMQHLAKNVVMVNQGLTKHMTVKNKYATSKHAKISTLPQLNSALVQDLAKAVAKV
# Assay summary: CDK1/CyclinB human kinase inhibition, Invitrogen's FRET assay (Z'lyte)
# Assay type: biochemical
# Condition set: read-out: CDK1 pIC50 (converted)
Recorded IC50 values for a group of molecules are listed next.
Experimental endpoint: IC50

- Given smiles: "CC1(C)NCc2cc(ccc2N2CCOCC2)Nc2nccc(n2)-c2cccc(c2)OCCCNC1=O"
  Experimental endpoint: "IC50"
  Value reported: "4.68 µM"
- Given smiles: "O=C1NCCCOc2cccc(c2)-c2ccnc(n2)Nc2ccc(N3CCOCC3)c(c2)CN[C@H]1CO"
  Experimental endpoint: "IC50"
  Value reported: "> 10 µM"
- Given smiles: "O=C1NCCNCc2ccc(cc2)-c2ccnc(n2)Nc2ccc(N3CCOCC3)c(c2)CN2CCC[C@@H]12"
  Experimental endpoint: "IC50"
  Value reported: "> 10 µM"
- Given smiles: "O=C1NCCNc2cc(ccn2)-c2ccnc(n2)Nc2ccc(N3CCOCC3)c(c2)CN2CCC1CC2"
  Experimental endpoint: "IC50"
  Value reported: "> 10 µM"
- Given smiles: "CC(C)Nc1cc2cc(c1)Nc1nccc(n1)-c1ccc(cc1)CN(C)CCNC(=O)CN1CCN(CC1)C2"
  Experimental endpoint: "IC50"
  Value reported: "1.38 µM"
- Given smiles: "CN(C)CCNC(=O)c1ccc2cc1CN1CCC[C@H]1C(=O)NCc1cccc(c1)-c1ccnc(n1)N2"
  Experimental endpoint: "IC50"
  Value reported: "~1.35 µM"
- Given smiles: "COc1ccc2cc1CN(C)CCNC(=O)C1CCN(CC1)Cc1cc(cc(N3CCOCC3)c1)Nc1nccc-2n1"
  Experimental endpoint: "IC50"
  Value reported: "> 10 µM"
- Given smiles: "O=C1NCCNCc2ccc(cc2)-c2ccnc(n2)Nc2ccc(N3CCOCC3)c(c2)CN2CCC1CC2"
  Experimental endpoint: "IC50"
  Value reported: "9.77 µM"
- Given smiles: "COc1ccc2cc1CN(C)CCCNC(=O)CN1CCN(CC1)Cc1cc(cc(N3CCOCC3)c1)Nc1nccc-2n1"
  Experimental endpoint: "IC50"
  Value reported: "> 10 µM"
- Given smiles: "O=C1CN2CCN(CC2)Cc2cc(ccc2N2CCOCC2)Nc2nccc(n2)-c2cccc(c2)OCCN1"
  Experimental endpoint: "IC50"
  Value reported: "2.57 µM"
- Given smiles: "CN(C)C(=O)c1ccc2cc1CN1CCC[C@H]1C(=O)NCc1cccc(c1)-c1ccnc(n1)N2"
  Experimental endpoint: "IC50"
  Value reported: "> 10 µM"
- Given smiles: "CN1CCNC(=O)[C@H](CO)NCc2cc(cc(N3CCOCC3)c2)Nc2nccc(n2)-c2ccc(cc2)C1"
  Experimental endpoint: "IC50"
  Value reported: "> 10 µM"
- Given smiles: "O=C1NCCCNCc2ccc(cc2)-c2ccnc(n2)Nc2ccc(N3CCOCC3)c(c2)CN2C[C@H](O)C[C@@H]12"
  Experimental endpoint: "IC50"
  Value reported: "> 10 µM"
- Given smiles: "CN1CCNC(=O)[C@@H]2CCCN2Cc2cc(cc(N3CCOCC3)c2)Nc2nccc(n2)-c2ccc(cc2)C1"
  Experimental endpoint: "IC50"
  Value reported: "> 10 µM"

// provenance: patent US8609836B2
